TARGET_OR_SYSTEM: full-length NOR-1 (MINOR) (Homo sapiens)
Construct: Full length Nor1-; expressed in transfected cells; host or cells: NIH3T3
ASSAY_PROCEDURE: Mammalian Two Hybrid luciferase reporter, GAL4-full-length Nor1 construct
Format: cell-based
CONDITION_NOTES: NIH3T3 cells, luciferase, with RXRα
Let's look at some compounds and their measured Full length Nor1-ligand activity RXR(+).

// below: answered compounds
O=C(O)CCC/C=C\C[C@H]1C(=O)C=C[C@@H]1/C=C/[C@@H](O)COc1ccccc1; 30 µM
CCCCC[C@@](C)(O)/C=C/[C@H]1C=CC(=O)[C@@H]1C/C=C\CCCC(=O)O [15(R)-15-methyl Prostaglandin A2]; 10 µM
CCCCC[C@H](O)/C=C/[C@H]1C=CC(=O)[C@H]1CCCCCCC(=O)O; 10 µM
CCCCC[C@H](O)/C=C/[C@H]1C=CC(=O)[C@@H]1C/C=C\CCCC(=O)O; 10 µM
O=C(O)CCC/C=C\C[C@H]1C(=O)C=C[C@@H]1/C=C/[C@@H](O)CCc1ccccc1; 10 µM
CCCCC(C)(C)[C@H](O)/C=C/[C@H]1C=CC(=O)[C@@H]1C/C=C\CCCC(=O)O; 5 µM
CCCCC[C@H](O)/C=C/[C@H]1C=CC(=O)[C@@H]1CCCCCCC(=O)O; 10 µM

Lab note: measured Full length Nor1-ligand activity RXR(+) of CCCCC/C=C\C=C1\C(=O)C=C[C@@H]1C/C=C\CCCC(=O)O was 10 µM

====

TARGET_OR_SYSTEM: full-length NOR-1 (MINOR) (Homo sapiens, UniProt Q92570)
Construct: Full length Nor1-; expressed in transfected cells; host or cells: NIH3T3
Sequence (Q92570 whole entry): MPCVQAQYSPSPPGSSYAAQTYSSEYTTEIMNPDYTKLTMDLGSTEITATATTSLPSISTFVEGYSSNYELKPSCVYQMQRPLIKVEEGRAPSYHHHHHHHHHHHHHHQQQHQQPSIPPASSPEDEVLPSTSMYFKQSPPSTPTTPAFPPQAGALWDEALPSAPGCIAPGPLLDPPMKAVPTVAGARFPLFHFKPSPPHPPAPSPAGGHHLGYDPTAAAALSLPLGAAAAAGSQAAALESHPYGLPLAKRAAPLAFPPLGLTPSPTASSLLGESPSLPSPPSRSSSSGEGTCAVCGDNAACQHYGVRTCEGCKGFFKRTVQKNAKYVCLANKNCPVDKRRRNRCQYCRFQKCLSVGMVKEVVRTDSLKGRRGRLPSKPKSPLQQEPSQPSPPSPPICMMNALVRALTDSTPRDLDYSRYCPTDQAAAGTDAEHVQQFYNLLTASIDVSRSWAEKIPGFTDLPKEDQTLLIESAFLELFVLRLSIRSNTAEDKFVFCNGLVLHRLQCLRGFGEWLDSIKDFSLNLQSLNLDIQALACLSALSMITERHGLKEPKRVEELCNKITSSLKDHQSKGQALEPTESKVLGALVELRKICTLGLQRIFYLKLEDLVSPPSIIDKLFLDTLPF
ASSAY_PROCEDURE: Mammalian Two Hybrid luciferase reporter, GAL4-full-length Nor1 construct
Type: cell-based
CONDITION_NOTES: NIH3T3 cells, luciferase, without RXRα
Protocol: A full-length gene or the ligand-binding site of NOR-1 is inserted into X, and the full-length gene of the retinoic acid X receptor (RXR)α is inserted into Y. These constructs are transfected into NIH3T3 cells, and the activity of induced luciferase is measured. Mammalian Two Hybrid system was slightly modified. […]
EXPERIMENTAL_READOUT: Full length Nor1-ligand activity RXR(−) (µM)
Return type: number; implicit unit µM.

// below: answered molecules
CCCCC(C)(C)[C@H](O)/C=C/[C@H]1C=CC(=O)[C@@H]1C/C=C\CCCC(=O)O; 5
CCCCC[C@H](O)/C=C/[C@H]1C=CC(=O)[C@@H]1C/C=C\CCCC(=O)O; 10
CCCCC[C@H](O)/C=C/[C@H]1C=CC(=O)[C@@H]1CCCCCCC(=O)O; 10
O=C(O)CCC/C=C\C[C@H]1C(=O)C=C[C@@H]1/C=C/[C@@H](O)CCc1ccccc1; 10

Lab note: measured Full length Nor1-ligand activity RXR(−) of CCCCC[C@@](C)(O)/C=C/[C@H]1C=CC(=O)[C@@H]1C/C=C\CCCC(=O)O [15(R)-15-methyl Prostaglandin A2] was 10

Lab note: measured Full length Nor1-ligand activity RXR(−) of O=C(O)CCC/C=C\C[C@H]1C(=O)C=C[C@@H]1/C=C/[C@@H](O)COc1ccccc1 was 30
